Target: Voltage-dependent T-type calcium channel subunit alpha-1G (Homo sapiens, UniProt O43497)
Sequence (O43497 whole entry): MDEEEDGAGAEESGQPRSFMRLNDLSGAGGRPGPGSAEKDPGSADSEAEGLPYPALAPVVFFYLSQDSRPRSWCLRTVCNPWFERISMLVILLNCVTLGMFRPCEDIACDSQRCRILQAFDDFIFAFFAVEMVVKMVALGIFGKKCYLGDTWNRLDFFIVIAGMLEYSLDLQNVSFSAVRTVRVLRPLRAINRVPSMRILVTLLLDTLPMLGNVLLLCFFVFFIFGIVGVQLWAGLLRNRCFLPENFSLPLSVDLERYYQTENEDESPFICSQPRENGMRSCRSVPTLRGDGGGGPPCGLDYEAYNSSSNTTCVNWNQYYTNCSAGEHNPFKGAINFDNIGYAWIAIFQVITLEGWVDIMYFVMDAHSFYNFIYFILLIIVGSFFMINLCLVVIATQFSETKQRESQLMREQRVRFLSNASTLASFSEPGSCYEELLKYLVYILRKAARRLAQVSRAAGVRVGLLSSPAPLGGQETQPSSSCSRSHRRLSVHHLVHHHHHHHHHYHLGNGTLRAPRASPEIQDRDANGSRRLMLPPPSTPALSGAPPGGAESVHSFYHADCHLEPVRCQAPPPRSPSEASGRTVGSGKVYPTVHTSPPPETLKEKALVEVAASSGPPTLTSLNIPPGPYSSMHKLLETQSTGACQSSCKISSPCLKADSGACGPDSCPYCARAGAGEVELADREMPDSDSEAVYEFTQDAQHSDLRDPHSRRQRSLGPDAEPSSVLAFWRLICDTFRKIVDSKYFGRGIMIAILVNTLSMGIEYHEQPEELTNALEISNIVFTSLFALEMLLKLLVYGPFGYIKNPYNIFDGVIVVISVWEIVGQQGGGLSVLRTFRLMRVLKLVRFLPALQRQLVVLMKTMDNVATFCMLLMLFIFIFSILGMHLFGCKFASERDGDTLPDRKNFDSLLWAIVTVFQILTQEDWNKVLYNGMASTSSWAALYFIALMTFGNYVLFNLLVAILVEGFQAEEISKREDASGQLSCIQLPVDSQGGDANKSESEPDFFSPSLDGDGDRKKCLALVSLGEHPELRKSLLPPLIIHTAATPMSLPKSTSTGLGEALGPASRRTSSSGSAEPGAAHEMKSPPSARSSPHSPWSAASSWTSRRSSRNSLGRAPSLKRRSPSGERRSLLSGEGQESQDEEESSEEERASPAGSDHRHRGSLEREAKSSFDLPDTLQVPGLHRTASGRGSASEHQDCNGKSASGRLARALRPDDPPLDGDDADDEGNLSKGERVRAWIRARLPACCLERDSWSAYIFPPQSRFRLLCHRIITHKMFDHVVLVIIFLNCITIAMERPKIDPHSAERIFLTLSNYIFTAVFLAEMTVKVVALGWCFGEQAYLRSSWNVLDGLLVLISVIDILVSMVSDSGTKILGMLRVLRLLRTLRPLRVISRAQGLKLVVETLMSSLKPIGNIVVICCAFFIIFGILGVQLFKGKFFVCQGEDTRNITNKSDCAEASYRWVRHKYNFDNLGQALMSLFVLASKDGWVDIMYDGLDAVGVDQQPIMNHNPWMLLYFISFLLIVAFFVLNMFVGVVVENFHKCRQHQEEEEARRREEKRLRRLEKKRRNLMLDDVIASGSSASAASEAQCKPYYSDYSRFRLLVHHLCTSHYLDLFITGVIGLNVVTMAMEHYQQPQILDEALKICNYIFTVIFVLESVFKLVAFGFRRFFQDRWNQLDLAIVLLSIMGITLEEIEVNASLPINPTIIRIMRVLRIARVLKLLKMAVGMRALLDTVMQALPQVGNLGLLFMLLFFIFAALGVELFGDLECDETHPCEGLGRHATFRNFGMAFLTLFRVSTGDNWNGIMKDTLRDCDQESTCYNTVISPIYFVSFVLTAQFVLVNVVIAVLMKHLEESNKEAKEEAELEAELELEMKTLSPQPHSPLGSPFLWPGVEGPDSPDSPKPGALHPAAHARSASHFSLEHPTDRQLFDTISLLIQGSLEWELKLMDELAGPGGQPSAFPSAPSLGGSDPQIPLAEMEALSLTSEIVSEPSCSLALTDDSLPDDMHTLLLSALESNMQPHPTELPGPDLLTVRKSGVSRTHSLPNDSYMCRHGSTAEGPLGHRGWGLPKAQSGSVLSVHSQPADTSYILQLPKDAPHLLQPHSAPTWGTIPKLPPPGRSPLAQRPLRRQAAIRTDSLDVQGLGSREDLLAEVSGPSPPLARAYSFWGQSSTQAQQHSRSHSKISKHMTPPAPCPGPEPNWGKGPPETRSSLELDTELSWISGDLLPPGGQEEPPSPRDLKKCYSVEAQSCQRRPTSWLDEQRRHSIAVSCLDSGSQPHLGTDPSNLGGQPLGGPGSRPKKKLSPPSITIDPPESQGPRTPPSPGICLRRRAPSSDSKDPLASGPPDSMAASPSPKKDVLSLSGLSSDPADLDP
Assay: Inhibition of T-type calcium channel alpha1G expressed in human HEK293 cells assessed as KCl-induced depolarization at 10 uM after 60 mins by FDSS6000 assay
Type: cell-based
value type: inhibition (%)

{"molecule": "COc1ccccc1CN1CCC(C#N)(CNC(=O)c2cc(Cl)cc(Cl)c2)CC1", "quantity unit": "%", "reading": 19.3}
{"molecule": "COc1cc(OC)cc(C(=O)NCC2(C#N)CCN(CC3=Cc4ccccc4OC3(C)C)CC2)c1", "quantity unit": "%", "reading": 44.3}
{"molecule": "COc1cccc(CN2CCC(C#N)(CNC(=O)c3cc(CC(C)C)n(-c4ccccc4)n3)CC2)c1", "quantity unit": "%", "reading": 60.4}
{"molecule": "COC(=O)C1(CNC(=O)c2cc(OC)cc(OC)c2)CCN(Cc2ccc(C(F)(F)F)cc2)CC1", "quantity unit": "%", "reading": 64.3}
{"molecule": "COC(=O)C1(CNC(=O)c2cc(OC)cc(OC)c2)CCN(Cc2ccccc2OC)CC1", "quantity unit": "%", "reading": 46.8}
{"molecule": "COc1cccc(CN2CCC(C#N)(CNC(=O)c3cc(Cl)cc(Cl)c3)CC2)c1", "quantity unit": "%", "reading": 8.33}
{"molecule": "COC(=O)C1(CNC(=O)c2cc(Cl)cc(Cl)c2)CCN(Cc2ccccc2OC)CC1", "quantity unit": "%", "reading": 68.5}
{"molecule": "COC(=O)C1(CNC(=O)c2cc(OC)cc(OC)c2)CCN(Cc2ccc(OC)cc2)CC1", "quantity unit": "%", "reading": 59}
{"molecule": "COc1cc(OC)cc(C(=O)NCC2(C#N)CCN(Cc3ccccc3OC)CC2)c1", "quantity unit": "%", "reading": 50.9}

###

This section presents compounds with their documented log10 of IC50 values.
Molecular target: Voltage-gated inwardly rectifying potassium channel KCNH2 (Homo sapiens, UniProt Q12809)
Sequence (Q12809 whole entry): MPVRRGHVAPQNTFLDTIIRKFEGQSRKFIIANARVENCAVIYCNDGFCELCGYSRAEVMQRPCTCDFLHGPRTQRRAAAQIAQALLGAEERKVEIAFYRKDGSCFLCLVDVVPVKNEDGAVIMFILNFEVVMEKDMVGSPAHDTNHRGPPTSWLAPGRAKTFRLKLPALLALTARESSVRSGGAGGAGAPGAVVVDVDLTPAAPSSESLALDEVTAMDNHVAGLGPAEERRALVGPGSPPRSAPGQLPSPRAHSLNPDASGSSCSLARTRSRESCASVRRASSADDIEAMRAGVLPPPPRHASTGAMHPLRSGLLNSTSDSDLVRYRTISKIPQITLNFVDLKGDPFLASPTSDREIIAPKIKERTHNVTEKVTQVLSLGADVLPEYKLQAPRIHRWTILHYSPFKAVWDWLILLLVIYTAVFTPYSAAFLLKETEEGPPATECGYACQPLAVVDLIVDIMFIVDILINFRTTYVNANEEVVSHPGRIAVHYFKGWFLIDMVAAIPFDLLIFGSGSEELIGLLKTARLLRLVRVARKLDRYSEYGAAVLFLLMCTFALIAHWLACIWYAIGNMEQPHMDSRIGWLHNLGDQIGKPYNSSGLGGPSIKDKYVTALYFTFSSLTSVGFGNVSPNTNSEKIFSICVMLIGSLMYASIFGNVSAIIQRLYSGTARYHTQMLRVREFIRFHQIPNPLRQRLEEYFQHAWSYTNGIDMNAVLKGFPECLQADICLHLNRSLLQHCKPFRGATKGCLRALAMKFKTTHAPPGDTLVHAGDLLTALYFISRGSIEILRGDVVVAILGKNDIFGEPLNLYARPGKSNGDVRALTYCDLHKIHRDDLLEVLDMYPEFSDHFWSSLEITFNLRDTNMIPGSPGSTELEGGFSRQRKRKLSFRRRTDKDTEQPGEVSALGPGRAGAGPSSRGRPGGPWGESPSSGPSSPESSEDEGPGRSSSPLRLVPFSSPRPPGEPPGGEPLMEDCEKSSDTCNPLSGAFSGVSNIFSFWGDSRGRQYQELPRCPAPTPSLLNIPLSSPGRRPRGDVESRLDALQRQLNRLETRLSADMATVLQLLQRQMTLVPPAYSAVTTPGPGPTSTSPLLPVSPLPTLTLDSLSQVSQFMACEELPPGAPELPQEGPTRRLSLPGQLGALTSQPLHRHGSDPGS
Assay: Inhibition of human ERG by patch clamp assay
value type: log10 of IC50 (log10 of the value in nM)

{"molecule": "COc1cc(OC)cc(C(=O)NCC2(C#N)CCN(CCc3ccccc3)CC2)c1", "log10 of IC50": 3.20}
{"molecule": "COc1cc(OC)cc(C(=O)NCC2(C#N)CCN(Cc3ccccc3OC)CC2)c1", "log10 of IC50": 2.96}
{"molecule": "COC(=O)C1(CNC(=O)c2cc(OC)cc(OC)c2)CCN(Cc2ccc(OC)cc2)CC1", "log10 of IC50": 2.68}
{"molecule": "COC(=O)C1(CNC(=O)c2cc(Cl)cc(Cl)c2)CCN(Cc2ccc(C(F)(F)F)cc2)CC1", "log10 of IC50": 2.46}
{"molecule": "COC(=O)C1(CNC(=O)c2cc(OC)cc(OC)c2)CCN(Cc2ccccc2C(F)(F)F)CC1", "log10 of IC50": 3.70}
{"molecule": "COc1cccc(CN2CCC(C#N)(CNC(=O)c3cc(CC(C)C)n(-c4ccccc4)n3)CC2)c1", "log10 of IC50": 3.18}
{"molecule": "COc1cc(OC)cc(C(=O)NCC2(C#N)CCN(CC3=Cc4ccccc4OC3(C)C)CC2)c1", "log10 of IC50": 3.67}
{"molecule": "COC(=O)C1(CNC(=O)c2cc(Cl)cc(Cl)c2)CCN(CC2=Cc3ccccc3OC2(C)C)CC1", "log10 of IC50": 4.14}
{"molecule": "COc1cc(OC)cc(C(=O)NCC2(C#N)CCN(Cc3ccccc3C(F)(F)F)CC2)c1", "log10 of IC50": 3.68}
